study.system: hPPAR δ (Homo sapiens)
procedure.summary: cell-based human PPAR-GAL4 chimera luciferase reporter assay in CV-1 cells
run.conditions: PPAR LBD-GAL4 chimera, 24 hours treatment
Please respond with reported EC50 for every item in the list.

Measured EC50, O=C(O)c1cccc(OCCCN(Cc2ccc(C(F)(F)F)cc2)c2nc3ccccc3s2)n1 : > 100 µM

Measured EC50, O=C(O)c1cncc(OCCCN(Cc2ccc(C(F)(F)F)cc2C(F)(F)F)c2nc3ccccc3o2)c1 : > 100 µM

Measured EC50, CCCCN(CCCOc1cncc(C(=O)O)c1)c1nc2ccccc2s1 : > 100 µM

----------
study.system: hPPAR δ (Homo sapiens, UniProt Q03181)
Sequence (Q03181 211-439 limits assumed): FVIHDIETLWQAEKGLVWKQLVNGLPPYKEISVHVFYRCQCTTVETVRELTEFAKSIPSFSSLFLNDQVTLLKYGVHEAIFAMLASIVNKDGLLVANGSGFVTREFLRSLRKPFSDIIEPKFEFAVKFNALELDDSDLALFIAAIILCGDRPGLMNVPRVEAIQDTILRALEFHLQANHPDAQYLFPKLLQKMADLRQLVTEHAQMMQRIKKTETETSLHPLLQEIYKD
procedure.summary: cell-based human PPAR-GAL4 chimera luciferase reporter assay in CV-1 cells
run.conditions: PPAR LBD-GAL4 chimera, 24 hours treatment
Please respond with reported EC50 for every item in the list.

Measured EC50, CCCCN(CCCOc1nc2ccccc2nc1C(=O)O)c1ncc(CC)cn1 : 1 to 100 µM

Measured EC50, CCCCN(CCCOc1nc2ccccc2nc1C(=O)O)c1nc2ccccc2o1 : > 100 µM

Measured EC50, CCc1cnc(N(CCCOc2cncc(C(=O)O)c2)Cc2ccc(C(F)(F)F)cc2C(F)(F)F)nc1 : 1 to 100 µM

Measured EC50, CCCCN(CCCOc1cccc(C(=O)O)n1)c1nc2ccccc2o1 : > 100 µM

Measured EC50, O=C(O)c1cccc(OCCCN(Cc2ccc(C(F)(F)F)cc2C(F)(F)F)c2nc3ccccc3o2)n1 : > 100 µM

Measured EC50, O=C(O)c1cccc(OCCCN(Cc2ccc(C(F)(F)F)cc2C(F)(F)F)c2ccccn2)n1 : > 100 µM

Measured EC50, CCCCN(CCCOc1cncc(C(=O)O)c1)c1ncc(CC)cn1 : > 100 µM

Measured EC50, CCc1cnc(N(CCCOc2ncc(C(=O)O)cc2Cl)Cc2ccc(C(F)(F)F)cc2C(F)(F)F)nc1 : > 100 µM

Measured EC50, CCCCN(CCCOc1cccc(C(=O)O)n1)c1ncc(CC)cn1 : 1 to 100 µM

Measured EC50, CCCCN(CCCOc1ccc2[nH]cc(CC(=O)O)c2c1)c1ncc(CC)cn1 : > 100 µM

Measured EC50, CCc1cnc(N(CCCOc2cccc(C(=O)O)n2)Cc2ccc(C(F)(F)F)cc2C(F)(F)F)nc1 : > 100 µM

Measured EC50, O=C(O)c1nc2ccccc2nc1OCCCN(Cc1ccc(C(F)(F)F)cc1)c1nc2ccccc2s1 : > 100 µM

Measured EC50, CCCCN(CCCOc1cncc(C(=O)O)c1)c1ccccn1 : > 100 µM

Measured EC50, CCCCN(CCCOc1cccc(C(=O)O)n1)c1ccccn1 : > 100 µM

Measured EC50, CCCCN(CCCOc1ccc2[nH]cc(CC(=O)O)c2c1)c1ccccn1 : > 100 µM

Measured EC50, O=C(O)c1cncc(OCCCN(Cc2ccc(C(F)(F)F)cc2C(F)(F)F)c2nc3ccccc3s2)c1 : > 100 µM

Measured EC50, CCCCN(CCCOc1ccc2[nH]cc(CC(=O)O)c2c1)c1nc2ccccc2o1 : 1 to 100 µM

Measured EC50, O=C(O)c1cncc(OCCCN(Cc2ccc(C(F)(F)F)cc2C(F)(F)F)c2ccccn2)c1 : 1 to 100 µM

Measured EC50, CCCCN(CCCOc1nc2ccccc2nc1C(=O)O)c1ccccn1 : > 100 µM

Measured EC50, O=C(O)c1cccc(OCCCN(Cc2ccc(C(F)(F)F)cc2C(F)(F)F)c2nc3ccccc3s2)n1 : > 100 µM
